System: TGF-β
Test: ELISA of TGFβ in serum of mice of the bleomycin model
Type: in vivo, C57BL/6J mice
Details: BLM mice, 150 μg/kg daily intraperitoneal, 14 days, FIG. 6-B
*1 amine or outer side, *2 acyl side, *3 side chain or, on linkers, in order; H or OH if unused. Primed or numbered codes have the meaning given here. [ ]: non-standard residue; d: D form. The star is where a group is joined. C20 diacid = O=C(O)CCCCCCCCCCCCCCCCCCC(=O)*; γGlu = O=C(O)[C@H](CCC(=O)[*:2])N[*:1]; Iva = CC[C@](C)(N)C(=O)O; PEG2′ = not defined here
MEASUREMENT KIND: concentration of TGF-β in serum of mice

substance="(PEG2-PEG2-γGlu-CO(CH2)18CO2H)-Val-Iva-Gly-Ser-Pro-Ser-Ala-Gln-Glu-Glu-Ala-Ser-Pro-Leu-NH2 ({C20 diacid-γGlu-PEG2′-PEG2′}-V[Iva]GSPSAQEEASPL-NH2) [Compound 11]" measurement_kind="concentration of TGF-β in serum of mice" result="significantly reduce"
substance="(PEG2-PEG2-γGlu-CO(CH2)18CO2H)-Val-Iva-Gly-Ser-Pro-Ser-Ala-Gln-Glu-Glu-Ala-Ser-Pro-Ala-NH2 ({C20 diacid-γGlu-PEG2′-PEG2′}-V[Iva]GSPSAQEEASPA-NH2) [Compound 7]" measurement_kind="concentration of TGF-β in serum of mice" result="significantly reduce"

Every entry's value here was drawn from patent US20240336653A1.
